biological target: T1, purified recombinant CBP KIX domain (UniProt P45481 586-665); assay: MST; conditions: both partners purified
T1 construct: also called KIX domain of CBP; source: E. coli BL21(DE3), pGEX-KIX, purified (glutathione agarose, thrombin cleavage, MonoS cation exchange)
T1 sequence (P45481 586-665): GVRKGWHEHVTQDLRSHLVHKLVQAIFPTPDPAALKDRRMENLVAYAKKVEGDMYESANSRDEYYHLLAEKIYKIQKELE
Non-standard residues stand in square brackets, D forms with d. No end group written: not given here.
Reported values of Kd for individual entries
parameter: Kd

[dK][dL][dE][dN][dE][dT][dS][dM]G[dL][dL][dE][dL][dE][dK][dI][dR][dK]GG[dR][dR][dR][dQ][dR][dR][dK][dK][dR]G[dY]-NH2 (also: FITC-conjugated, site not given here) [FITC-conjugated TG1] ... 59.2 µM
[dK][dL]G[dN][dE][dT][dS][dM]G[dL][dL][dE][dL][dE][dK][dI][dR][dK]GG[dR][dR][dR][dQ][dR][dR][dK][dK][dR]G[dY]-NH2 (also: FITC-conjugated, site not given here) [FITC-conjugated TG2] ... 75.1 µM
[dK][dL][dE][dN][dE][dT][dS][dM][dL][dL][dL][dE][dL][dE][dK][dI][dR][dK] (also: FITC-conjugated, site not given here, retro-inverso TAT delivery segment not in chain) [FITC-conjugated MYBMIM] ... 21.3 µM
[dK][dL]G[dN][dE][dT][dS][dM]G[dL][dL][dE][dL][dE][dK][dI]G[dK]GG[dR][dR][dR][dQ][dR][dR][dK][dK][dR]G[dY]-NH2 (also: FITC-conjugated, site not given here) [FITC-conjugated TG3] ... 114 µM
